- Test system: KM12
- assay notes: NCI tumour cell line growth inhibition, 48 h
Calls of active or inactive are those of the source. No stated cut-off is given here; in the data, active = GI50 up to about 1.1 µM and inactive = higher.
Exercise: state measured GI50 for each of the molecules provided.

Given CCCCCCCC(=O)OCC1OC(OC)C(NC(=O)N(CCCl)N=O)C(O)C1O (centres undefined) , state its recorded GI50.
9.89 µM (inactive)

Then this molecule: O=C1c2cc([N+](=O)[O-])sc2C(=O)c2c([N+](=O)[O-])csc21
1.24 µM (inactive)

Then this molecule: CC(=O)Oc1ccc(/C=C/C(=O)O[C@H]2CCCC[C@@H]2OC(=O)/C=C/c2ccc(OC(C)=O)c(OC(C)=O)c2)cc1OC(C)=O
8.75 µM (inactive)

Then this molecule: CC(C)C1=CC23CCC4C(C)(C(=O)O)CCCC4(C)C2CC1C(C(=O)O)C3C(=O)O (centres undefined)
> 100 µM (inactive)

Then this molecule: CC(=O)N1N(c2ccc([N+](=O)[O-])cc2)C(=O)C1(C)C
16.7 µM (inactive)

Then this molecule: COc1ccc(SCc2cc(OC)c(OC)c(OC)c2)cc1OC
37.5 µM (inactive)

Then this molecule: c1ccc2c3c([nH]c2c1)C1C2CCCCN2C(c2ccncc2)N1CC3 (centres undefined)
35.9 µM (inactive)

Then this molecule: COc1cccc2c1C1=CC(=O)CCC1C(C)(C)O2 (centres undefined)
45.6 µM (inactive)

Then this molecule: CCOC(=O)C12CCCC1(O)N(NC(N)=O)C(C)=C2C(=O)OC (centres undefined)
> 100 µM (inactive)

====

- System: DU-145
- assay notes: NCI tumour cell line growth inhibition, 48 h
Activity calls are given as the source filed them. No stated cut-off is given here; in the data, active = GI50 up to about 1.1 µM and inactive = higher.
measured endpoint: GI50

What measured GI50 is associated with BrCc1ccc2ccc3ccc(CBr)nc3c2n1 on DU-145?
8.18 µM (inactive)

Then this compound: Cc1c(C(=O)c2ccccc2)[n+]([O-])c2cc(Cl)c(Cl)cc2[n+]1[O-]
16.1 µM (inactive)

Then this compound: C=C(C)[C@]12CC(C)C34OC(/C=C\C=C\CCCCCCCCC)(O[C@@H]1[C@@H]3[C@@H]1O[C@]1(CO)[C@@H](O)[C@]1(O)C(=O)C(C)=C[C@@H]41)O2 (stereo partly specified)
8.38 µM (inactive)

Then this compound: Cn1cnc([N+](=O)[O-])c1[Se]c1nc(N)nc2c1ncn2C1OC(CO)C(O)C1O (stereo unspecified)
> 100 µM (inactive)

Then this compound: Cc1cn(C2CC(OC(=O)c3ccc(Cl)cc3)C(COC(=O)c3ccc(Cl)cc3)O2)c(=O)[nH]c1=O (stereo unspecified)
> 100 µM (inactive)

Then this compound: Nc1nc2c(c(=O)[nH]1)N=C(COP(=O)(O)OP(=O)(O)O)CN2
> 100 µM (inactive)

====

- System: SNB-19
- assay notes: NCI tumour cell line growth inhibition, 48 h
Calls of active or inactive are those of the source. No stated cut-off is given here; in the data, active = GI50 up to about 1.1 µM and inactive = higher.
Exercise: state measured GI50 for each of the compounds provided.

What measured GI50 is associated with CCOC(=O)Nc1ccc(S(=O)(=O)OC)cc1.CCOC(=O)Nc1ccc(S(=O)(=O)OC)cc1.NNC(=O)c1ccncc1 on SNB-19?
> 50 µM (inactive)

Then this compound: OC(CC(O)(C(F)(F)F)C(F)(F)F)c1ccc(C(O)CC(O)(C(F)(F)F)C(F)(F)F)cc1 (centres undefined)
17.1 µM (inactive)

Then this compound: NC(=O)CC1OC(=O)Cc2cc3c(c(O)c21)C(=O)c1c(O)cccc1C3=O (centres undefined)
> 100 µM (inactive)

Then this compound: CC1C(=O)N=C2C(=CN(Cc3ccccc3)c3ccccc32)C(=O)N1C (centres undefined)
> 100 µM (inactive)

Then this compound: CCON=C1C(C)(C)C(C)(C)C(C)(C)C1(C)C
> 100 µM (inactive)

Then this compound: CN(C)C=C1C(=O)N(C)C(=O)N(C)C1=O
> 100 µM (inactive)

Then this compound: CCOC(=O)C#Cc1ccc(C#CC(=O)OCC)cc1
5.02 µM (inactive)

Then this compound: O=S(=O)(c1ccc(-c2nnc(-c3ccc(F)cc3)o2)cc1)c1ccc(-c2nnc(-c3ccc(F)cc3)o2)cc1
34.6 µM (inactive)

Then this compound: CC(C)/C(Cl)=N\OC(=O)Nc1ccc(S(N)(=O)=O)cc1
> 53.2 µM (inactive)

Then this compound: O=C1CCc2c(sc3ncnc(Nc4cccc(Br)c4)c23)C1
4.12 µM (inactive)

Then this compound: NNC(=O)CC(=O)Nc1ccccc1F
> 100 µM (inactive)

Then this compound: CC(SC(=S)N1CCOCC1)c1cc2oc(=O)n(C)c2cc1Cl (centres undefined)
> 100 µM (inactive)

Then this compound: Cc1ccc(/N=N/C(C(=O)c2ccccc2)C(=O)c2ccccc2)cc1
19 µM (inactive)

Then this compound: O=c1[nH]c2cc([N+](=O)[O-])c(Nc3c4ccccc4nc4ccccc34)c([N+](=O)[O-])c2[nH]1
5.02 µM (inactive)
